- Test system: C. albicans CaCi-8 + fluconazole, Alamar Blue growth, 48 h
- Assay explanation: azole-resistant Candida growth inhibition plus fluconazole, SAR follow-up, CaCi-8 strain, Alamar Blue fluorescence (AID 434935)
Results filed as inconclusive are left out. Active and inactive are the calls of the source.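 The calls were made as follows: active = EC50 no higher than ten times the top concentration tested; inconclusive = flat fit with growth inhibition between 30% and 70%, or poor fit; inactive = EC50 above ten times the top concentration tested.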
Outcome codes: active, inactive

- O=c1c2cc(Br)ccc2nc(-c2cccc(C(F)(F)F)c2)n1O: active
- CC(C)COCc1ccc(O)c2ncccc12: active
- O=C(NNC1=C(C(=O)C(F)(F)F)CCC1)c1ccc(Cl)cc1: active
- COc1ccc(-c2nnc(NC(=O)c3ccc(F)cc3)o2)cc1: active
- CCOC(=O)N1C(=O)C2(CCCCC2)N(c2ccc(C)cc2)C1=S: active
- COc1cc2c(cc1NC(=O)c1ccco1)CCCC2: active
- Cc1ccc(Nc2nc(N)c([N+](=O)[O-])c(N3CCC(C)CC3)n2)cc1C: active
- O=C(Nc1nnc(CCc2ccccc2)s1)c1ccco1: active
- Nc1nccnc1C(=O)Nc1nnc(SCc2ccc(Cl)cc2)s1: active
- Cc1ccc(C(=O)c2coc3c2C(=O)C(=O)c2ccccc2-3)cc1: active
- Cc1ccc(C(=O)Nc2cccc(-c3cn4ccccc4n3)c2)cc1: active
- O=C(Nc1sc2c(c1C(=O)c1ccc(Cl)cc1)CCCC2)c1cccnc1: active
- Cc1ccc(/C=C/C(=O)c2ccccc(=O)c2O)cc1C: inactive
- O=C(Nc1nc(-c2ccccn2)cs1)c1ccc(Br)s1: active
- CCCC(=O)NC(c1ccc(Cl)cc1)c1ccc2cccnc2c1O (centres undefined): active
- Cc1nc2ccccc2cc1OCc1ccc(F)cc1: active
- O=C(Oc1c(Cl)cc(Cl)c2cccnc12)c1cccs1: active
- CC(C)N1CCc2c(sc(NC(=O)c3nc4ccccc4s3)c2C(N)=O)C1: active
- O=C(Nc1nnc(-c2ccc3c(c2)CCCC3)o1)c1ccc(Cl)cc1Cl: active
- Cc1oc2c(F)c(F)c(F)c(F)c2c1S(=O)(=O)Nc1cccc(C(F)(F)F)c1: active
- Clc1ccc2c(c1)C(c1cccs1)=NNC(c1cccnc1)=N2: active
- CCCC(=O)NC(c1ccccc1)c1ccc2cccnc2c1O (centres undefined): active
- COc1ccc(-n2nc(C(=O)NCC(=O)N3CCN(c4ccccc4)CC3)c3ccccc3c2=O)c(OC)c1: active
- O=C(Nc1nnc(SCc2ccc(Cl)cc2)s1)c1ccc2ccccc2n1: active
